Values compiled from the RNAGym collection of RNA variant scans (doi:10.7554/elife.80360).

B1: HDV Ribozyme (parent)
chain: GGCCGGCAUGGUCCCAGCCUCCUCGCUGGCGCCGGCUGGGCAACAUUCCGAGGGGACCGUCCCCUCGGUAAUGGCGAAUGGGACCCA

variants of: B1; experiment: self-cleavage, relative activity (ratio to wild type); higher = more cleavage; co-transcriptional
For each record, write down the corresponding self-cleavage.
API note: the answer field is a bare number with no unit suffix.

Item under review: U23G A77G . Reported self-cleavage?
0.554

Item under review: C57A A87C . Reported self-cleavage?
1.05

Item under review: C26A G40A . Reported self-cleavage?
1.01

Item under review: U23C A56U . Reported self-cleavage?
0.987

Item under review: A43G C49U . Reported self-cleavage?
0.469

Item under review: G39U A77C . Reported self-cleavage?
0.233

Item under review: G6U U47G . Reported self-cleavage?
0.554

Item under review: U9G G82A . Reported self-cleavage?
0.739

Item under review: C33A G82A . Reported self-cleavage?
0.102

Item under review: G10A G50A . Reported self-cleavage?
0.657

Item under review: C33U C66U . Reported self-cleavage?
0.774
